System: NKL (IL-2 2.5 ng/mL)
TEST_SUMMARY: percent inhibition of viability; higher = more inhibition
CONDITION_NOTES: 72 h; 10000 nM
Please assign 0 (no) whenever percent inhibition of viability is at or above 70%, and 1 (yes) whenever it is below.

MOLECULE	CLASSIFICATION
S=C(NCc1ccc2c(c1)OCO2)N1CCN(c2ncnc3c2oc2ccccc23)CC1 [Amuvatinib] (max concentration tested 10000 nM)	0 (no)
CCC1=C[C@@H]2CN(C1)Cc1c([nH]c3ccccc13)[C@@](C(=O)OC)(c1cc3c(cc1OC)N(C)[C@H]1[C@@](O)(C(=O)OC)[C@H](OC(C)=O)[C@]4(CC)C=CCN5CC[C@]31[C@@H]54)C2 [Vinorelbine] (max concentration tested 10000 nM)	0 (no)
CN1CCc2c(c3ccccc3n2Cc2ccc(C(=O)NO)cc2)C1 [Tubastatin A] (max concentration tested 10000 nM)	0 (no)
C[C@]12C=CC(=O)C=C1CC[C@@H]1[C@@H]2C(=O)C[C@@]2(C)[C@H]1CC[C@]2(O)C(=O)CO [Prednisone] (max concentration tested 10000 nM)	1 (yes)
O=C(c1cc(Cc2n[nH]c(=O)c3ccccc23)ccc1F)N1CCN(C(=O)C2CC2)CC1 [Olaparib] (max concentration tested 10000 nM)	0 (no)

###

// percent inhibition of viability lookup, one value per entry
Test system: KHYG-1 (IL-2 2.5 ng/mL)
TEST_SUMMARY: percent inhibition of viability; higher = more inhibition
CONDITION_NOTES: 72 h; 10000 nM
READOUT_KIND: percent inhibition of viability (%)

MOLECULE	EXPERIMENTAL_SYSTEM	UNIT_SPEC	RECORDED_VALUE
CN(C[C@@H]1COCCO1)S(=O)(=O)Nc1ccc2ccc3ncc(-c4cnn(C)c4)cc3c(=O)c2c1 [MK-2461] (max concentration tested 10000 nM)	KHYG-1 (IL-2 2.5 ng/mL)	%	44.4
O=C1CCC(N2C(=O)c3ccccc3C2=O)C(=O)N1 (stereo not drawn) [Thalidomide] (max concentration tested 10000 nM)	KHYG-1 (IL-2 2.5 ng/mL)	%	10.3
COc1cc(N2CCN(C)CC2)ccc1Nc1nccc(-c2cn(C)c3cnccc23)n1 [AZ191] (max concentration tested 10000 nM)	KHYG-1 (IL-2 2.5 ng/mL)	%	84

###

Tested on: NK-92 (IL-2 2.5 ng/mL)
TEST_SUMMARY: percent inhibition of viability; higher = more inhibition
CONDITION_NOTES: 72 h; 10 nM
READOUT_KIND: percent inhibition of viability (%)

COMPOUND	RECORDED_VALUE
NC(=O)c1cccc2cn(-c3ccc([C@@H]4CCCNC4)cc3)nc12 [Niraparib] (max concentration tested 10000 nM)	12
Cc1cc(Nc2cc(N3CCN(C)CC3)nc(Sc3ccc(NC(=O)C4CC4)cc3)n2)n[nH]1 [Tozasertib] (max concentration tested 10000 nM)	-11.5
CNC(=O)c1nn(C)c2c1C(C)(C)Cc1cnc(Nc3ccc(N4CCN(C)CC4)cc3)nc1-2 [Milciclib] (max concentration tested 10000 nM)	-2.4
CC(C)C[C@H](NC(=O)[C@@H](COC(C)(C)C)NC(=O)[C@H](Cc1ccc(O)cc1)NC(=O)[C@H](CO)NC(=O)[C@H](Cc1c[nH]c2ccccc12)NC(=O)[C@H](Cc1cnc[nH]1)NC(=O)[C@@H]1CCC(=O)N1)C(=O)N[C@@H](CCCNC(=N)N)C(=O)N1CCC[C@H]1C(=O)NNC(N)=O [Goserelin] (max concentration tested 10000 nM)	-10.9
c1ccc([C@H]2CN3CCSC3=N2)cc1 [Levamisole] (max concentration tested 10000 nM)	-18.9

###

System: YT (IL-2 2.5 ng/mL)
TEST_SUMMARY: drug sensitivity score (DSS) (DSS units); higher = more sensitive; extreme values may be limits of the assay
CONDITION_NOTES: 72 h
// drug sensitivity score lookup, one value per entry
READOUT_KIND: drug sensitivity score

MOLECULE	EXPERIMENTAL_SYSTEM	RECORDED_VALUE
CN(C)/N=N/c1[nH]cnc1C(N)=O [Dacarbazine] (max concentration tested 10000 nM)	YT (IL-2 2.5 ng/mL)	3.43
O=C(Nc1c[nH]nc1-c1nc2ccc(CN3CCOCC3)cc2[nH]1)NC1CC1 [AT9283] (max concentration tested 1000 nM)	YT (IL-2 2.5 ng/mL)	4.99
Clc1ccccc1C(c1ccccc1)(c1ccccc1)n1cccn1 [TRAM-34] (max concentration tested 1000 nM)	YT (IL-2 2.5 ng/mL)	0
C/C(=C\c1csc(C)n1)[C@@H]1C[C@@H]2O[C@]2(C)CCC[C@H](C)[C@H](O)[C@@H](C)C(=O)C(C)(C)[C@@H](O)CC(=O)N1 [Ixabepilone] (max concentration tested 1000 nM)	YT (IL-2 2.5 ng/mL)	5.3

###

System: normal primary NK cells, pool 3 (3 donors) (IL-2 2.5 ng/mL)
TEST_SUMMARY: drug sensitivity score (DSS) (DSS units); higher = more sensitive; extreme values may be limits of the assay
CONDITION_NOTES: 72 h
// drug sensitivity score lookup, one value per entry
READOUT_KIND: drug sensitivity score

COMPOUND	READOUT_KIND	RECORDED_VALUE
CCCNC(=O)Nc1ccc(Oc2ncnc3cc(OC)c(OC)cc23)cc1Cl [KRN-633] (max concentration tested 2500 nM)	drug sensitivity score	0
COc1cc2nccc(Oc3ccc(NC(=O)C4(C(=O)Nc5ccc(F)cc5)CC4)cc3)c2cc1OC [Cabozantinib] (max concentration tested 1000 nM)	drug sensitivity score	0
COc1cc(N2CCN(C)CC2)ccc1Nc1nccc(-c2cn(C)c3cnccc23)n1 [AZ191] (max concentration tested 10000 nM)	drug sensitivity score	4.48
COc1ccc(-c2cc3c(C)nc(N)nc3n([C@H]3CC[C@H](OCCO)CC3)c2=O)cn1 (max concentration tested 10000 nM)	drug sensitivity score	8.86
CCNC(=O)c1noc(-c2cc(C(C)C)c(O)cc2O)c1-c1ccc(CN2CCOCC2)cc1 [Luminespib] (max concentration tested 1000 nM)	drug sensitivity score	22.2
Cc1nc(N)sc1-c1ccnc(Nc2ccc(N3CCOCC3)cc2)n1 [CYC-116] (max concentration tested 10000 nM)	drug sensitivity score	4.4
CN(C[C@@H]1COCCO1)S(=O)(=O)Nc1ccc2ccc3ncc(-c4cnn(C)c4)cc3c(=O)c2c1 [MK-2461] (max concentration tested 10000 nM)	drug sensitivity score	0
O=C(c1cc(Cc2n[nH]c(=O)c3ccccc23)ccc1F)N1CCN(C(=O)C2CC2)CC1 [Olaparib] (max concentration tested 10000 nM)	drug sensitivity score	0.4
CNC(=O)c1cc(Oc2ccc(NC(=O)Nc3ccc(Cl)c(C(F)(F)F)c3)cc2)ccn1 [Sorafenib] (max concentration tested 1000 nM)	drug sensitivity score	0
COc1ccc(-c2ccc3c(N4CCOC[C@@H]4C)nc(N4CCOC[C@@H]4C)nc3n2)cc1CO [AZD8055] (max concentration tested 10000 nM)	drug sensitivity score	2.13
CN1CCN(CCOc2cc(OC3CCOCC3)c3c(Nc4c(Cl)ccc5c4OCO5)ncnc3c2)CC1 [Saracatinib] (max concentration tested 10000 nM)	drug sensitivity score	0
COc1cc2c(cc1-c1c(C)noc1C)ncc1[nH]c(=O)n([C@H](C)c3ccccn3)c12 [I-BET151] (max concentration tested 10000 nM)	drug sensitivity score	6.22
Cc1c(NC(=O)OC[C@@H]2COCCN2)cn2ncnc(Nc3ccc4c(cnn4Cc4cccc(F)c4)c3)c12 (max concentration tested 10000 nM)	drug sensitivity score	2.07
O=C1CCC(N2C(=O)c3ccccc3C2=O)C(=O)N1 (centres undefined) [Thalidomide] (max concentration tested 10000 nM)	drug sensitivity score	0
CCN(CC)CCCC(C)Nc1ccnc2cc(Cl)ccc12 (centres undefined) [Chloroquine] (max concentration tested 100000 nM)	drug sensitivity score	11.8
CCCCCOC(=O)Nc1nc(=O)n([C@@H]2O[C@H](C)[C@@H](O)[C@H]2O)cc1F [Capecitabine] (max concentration tested 10000 nM)	drug sensitivity score	0
NC(=O)c1cccc2cn(-c3ccc([C@@H]4CCCNC4)cc3)nc12 [Niraparib] (max concentration tested 10000 nM)	drug sensitivity score	0
C[C@@H]1COC(Nc2ccc3ncnc(Nc4ccc(OCc5nccs5)c(Cl)c4)c3c2)=N1 [Varlitinib] (max concentration tested 10000 nM)	drug sensitivity score	0
CS(=O)(=O)N1CCc2c(-c3cnc(N)nc3)nc(N3CCOCC3)nc21 (max concentration tested 10000 nM)	drug sensitivity score	4.2
CCc1c(C(=O)C(N)=O)c2c(OCC(=O)O)cccc2n1Cc1ccccc1 [Varespladib] (max concentration tested 10000 nM)	drug sensitivity score	0
CO[C@@H]1[C@H](N(C)C(=O)c2ccccc2)C[C@H]2O[C@]1(C)n1c3ccccc3c3c4c(c5c6ccccc6n2c5c31)C(=O)NC4 [Midostaurin] (max concentration tested 10000 nM)	drug sensitivity score	12.1
COc1cc(C(=O)NC2CCN(C)CC2)c(F)cc1Nc1ncc2c(n1)N(C1CCCC1)CC(F)(F)C(=O)N2C [TAK-960] (max concentration tested 2500 nM)	drug sensitivity score	0
Cc1cc(Nc2cc(N3CCN(C)CC3)nc(/C=C/c3ccccc3)n2)n[nH]1 [ENMD-2076] (max concentration tested 10000 nM)	drug sensitivity score	7.76
CCn1nnc2c(N3CCOCC3)nc(-c3ccc(NC(=O)Nc4ccc(C(=O)N5CCN(C)CC5)cc4)cc3)nc21 [PKI-402] (max concentration tested 2500 nM)	drug sensitivity score	3.19

Reference for the values: the supplement of paper PMC5908809
